Tgt: T1, EsCas13d, nuclease-dead (Eubacterium siraeum, UniProt B0MS50, R295A;H300A;R849A;H854A)
T1 sequence: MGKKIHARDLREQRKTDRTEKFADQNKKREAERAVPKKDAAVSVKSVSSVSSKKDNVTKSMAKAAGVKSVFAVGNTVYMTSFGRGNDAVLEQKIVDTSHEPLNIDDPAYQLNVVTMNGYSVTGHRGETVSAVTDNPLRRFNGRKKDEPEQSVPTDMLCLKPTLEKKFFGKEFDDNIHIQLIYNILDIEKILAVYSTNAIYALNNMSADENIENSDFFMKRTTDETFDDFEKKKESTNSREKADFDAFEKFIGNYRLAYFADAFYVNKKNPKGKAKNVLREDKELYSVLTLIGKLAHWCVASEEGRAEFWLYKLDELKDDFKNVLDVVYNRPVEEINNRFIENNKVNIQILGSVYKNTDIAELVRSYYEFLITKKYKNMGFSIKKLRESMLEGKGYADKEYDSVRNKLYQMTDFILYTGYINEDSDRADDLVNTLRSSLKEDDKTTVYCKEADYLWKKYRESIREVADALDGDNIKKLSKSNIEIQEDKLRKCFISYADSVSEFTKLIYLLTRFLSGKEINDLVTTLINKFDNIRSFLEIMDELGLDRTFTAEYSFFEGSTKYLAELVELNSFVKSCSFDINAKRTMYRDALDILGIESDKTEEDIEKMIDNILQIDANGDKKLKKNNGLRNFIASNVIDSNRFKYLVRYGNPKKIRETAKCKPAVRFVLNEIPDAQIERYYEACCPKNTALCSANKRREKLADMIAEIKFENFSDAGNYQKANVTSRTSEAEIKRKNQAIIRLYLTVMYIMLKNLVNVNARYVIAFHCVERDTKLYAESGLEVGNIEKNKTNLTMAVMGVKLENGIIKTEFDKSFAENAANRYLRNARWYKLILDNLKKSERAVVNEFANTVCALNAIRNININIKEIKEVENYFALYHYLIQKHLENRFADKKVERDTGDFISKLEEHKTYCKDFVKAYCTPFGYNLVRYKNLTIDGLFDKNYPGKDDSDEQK
Method Description: crRNA (strand 1, pre-loaded); Mg2+; 40 mM Tris-HCl pH 7.5, 150 mM NaCl, 6 mM MgCl2, 1 mM DTT, 0.1% Tween-20, 0.2 mg/ml BSA; 25 C; 10 min per concentration, then washed
Particulars: tags: His6-TwinStrep-SUMO cleaved; N-terminal SNAP kept (SNAP-Surface 488); label: 3' end held by stalled T7 RNA polymerase
pKd: −log10 of the molar value.

Binder: target 2 MT 5'PFS GUU 3'PFS CUU (mixed) RNA 1: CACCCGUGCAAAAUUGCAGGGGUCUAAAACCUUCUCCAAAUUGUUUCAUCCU RNA 2: GGGAAUGGAUCCACAUCUACGAAUUCGUUAGGAUGAAACAAUUUGGAGAAGCUUAGAUCGGAAGAGCACACGU
pKd: 7.78

Binder: target 1 MT 5'PFS GGA 3'PFS AUC (mixed) RNA 1: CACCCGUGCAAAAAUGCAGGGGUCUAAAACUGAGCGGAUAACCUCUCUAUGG RNA 2: GGGAAUGGAUCCACAUCUACGAAUUCGGACCAUAGAGAGGUUAUCCGCUCAAUCAGAUCGGAAGAGCACACGU
pKd: 7.65

Binder: target 2 MT 5'PFS GAA 3'PFS ACA (mixed) RNA 1: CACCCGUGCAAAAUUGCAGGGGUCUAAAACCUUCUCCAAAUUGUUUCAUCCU RNA 2: GGGAAUGGAUCCACAUCUACGAAUUCGAAAGGAUGAAACAAUUUGGAGAAGACAAGAUCGGAAGAGCACACGU
pKd: 7.92

Binder: target 1 insA 3' of 8,insG 3' of 6 (mixed) RNA 1: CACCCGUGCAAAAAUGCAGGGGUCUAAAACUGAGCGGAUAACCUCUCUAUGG RNA 2: GGGAAUGGAUCCACAUCUACGAAUUCGUACCAUAGAGAGGUUAUACCGGCUCACCGAGAUCGGAAGAGCACACGU
pKd: 7.76

Binder: target 1 insC 3' of 12 (mixed) RNA 1: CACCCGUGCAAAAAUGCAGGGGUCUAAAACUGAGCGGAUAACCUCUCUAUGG RNA 2: GGGAAUGGAUCCACAUCUACGAAUUCGUACCAUAGAGAGGCUUAUCCGCUCACCGAGAUCGGAAGAGCACACGU
pKd: 8.08

Binder: target 1 A16G,G17A (mixed) RNA 1: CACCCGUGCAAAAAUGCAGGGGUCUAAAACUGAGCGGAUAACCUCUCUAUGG RNA 2: GGGAAUGGAUCCACAUCUACGAAUUCGUACCAUAAGGAGGUUAUCCGCUCACCGAGAUCGGAAGAGCACACGU
pKd: 7.08

Binder: target 1 insU 3' of 21,insG 3' of 14 (mixed) RNA 1: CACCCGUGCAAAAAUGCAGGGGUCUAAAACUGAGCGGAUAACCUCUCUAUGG RNA 2: GGGAAUGGAUCCACAUCUACGAAUUCGUACCUAUAGAGAGGGUUAUCCGCUCACCGAGAUCGGAAGAGCACACGU
pKd: 7.41

Binder: target 3 U2A,U22C (mixed) RNA 1: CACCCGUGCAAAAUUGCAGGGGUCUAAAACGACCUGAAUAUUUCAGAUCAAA RNA 2: GGGAAUGGAUCCACAUCUACGAAUUCGUUCUUGAUCUGAAAUAUUCAGGACUGCAGAUCGGAAGAGCACACGU
pKd: 7.64

Binder: target 1 U11G,G15A (mixed) RNA 1: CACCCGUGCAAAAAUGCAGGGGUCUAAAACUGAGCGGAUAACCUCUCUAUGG RNA 2: GGGAAUGGAUCCACAUCUACGAAUUCGUACCAUAGAAAGGGUAUCCGCUCACCGAGAUCGGAAGAGCACACGU
pKd: 7.23

Binder: target 2 MT 5'PFS GAU 3'PFS CUU (mixed) RNA 1: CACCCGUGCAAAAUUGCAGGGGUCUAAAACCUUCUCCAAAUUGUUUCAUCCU RNA 2: GGGAAUGGAUCCACAUCUACGAAUUCGAUAGGAUGAAACAAUUUGGAGAAGCUUAGAUCGGAAGAGCACACGU
pKd: 7.66

Binder: target 1 G12A,G13U (mixed) RNA 1: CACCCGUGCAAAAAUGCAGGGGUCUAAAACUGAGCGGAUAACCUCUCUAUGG RNA 2: GGGAAUGGAUCCACAUCUACGAAUUCGUACCAUAGAGAUAUUAUCCGCUCACCGAGAUCGGAAGAGCACACGU
pKd: 7.84

Binder: target 2 MT 5'PFS UUG 3'PFS AAG (mixed) RNA 1: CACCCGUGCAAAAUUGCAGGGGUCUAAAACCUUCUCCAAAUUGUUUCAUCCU RNA 2: GGGAAUGGAUCCACAUCUACGAAUUCUUGAGGAUGAAACAAUUUGGAGAAGAAGAGAUCGGAAGAGCACACGU
pKd: 8.02

Binder: target 2 MT 5'PFS GCU 3'PFS AUC (mixed) RNA 1: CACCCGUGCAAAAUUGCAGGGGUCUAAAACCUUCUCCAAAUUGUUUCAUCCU RNA 2: GGGAAUGGAUCCACAUCUACGAAUUCGCUAGGAUGAAACAAUUUGGAGAAGAUCAGAUCGGAAGAGCACACGU
pKd: 7.84

Binder: target 3 U8C,A11C (mixed) RNA 1: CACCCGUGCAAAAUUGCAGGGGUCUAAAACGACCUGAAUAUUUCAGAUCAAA RNA 2: GGGAAUGGAUCCACAUCUACGAAUUCGUUUUUGAUCUGAACUACUCAGGUCUGCAGAUCGGAAGAGCACACGU
pKd: 7.24
